experiment: Quantitative Vero cell toxicity (MTT); format: cell-based; conditions: African green monkey, Vero cells
CC50 at 24 h: recorded values

Use these answered entries as a reference point.
[[record]]
structure_smiles = "Cc1cc(O)c(=O)c(O)cc1-c1cccc(Br)c1"
parameter_measured = "CC50 at 24 h"
meas_value = "72.4 µM"

[[record]]
structure_smiles = "Cc1cc(O)c(=O)c(O)cc1-c1ccc(-c2ccccc2)cc1"
parameter_measured = "CC50 at 24 h"
meas_value = "> 100 µM"


Consider now this further compound.
Memo: O=c1c(O)ccccc1O , reported CC50 at 24 h: > 100 µM

---

Listed next: entries and their corresponding pEC50.
tested on: HBV; assay: HBV replication assay in HepDES19 cells; assay type: cell-based; conditions: Hepatitis B virus; HepDES19 cells; read-out: EC50 (HBV assay)
Keep in mind that pEC50 stands for -log10 of concentration in molar terms.

// worked examples, pEC50 included
[[record]]
molecule = "Cc1cc(O)c(=O)c(O)cc1-c1cccc(-c2ccc3ccccc3c2)c1 [Compound 232]"
parameter_measured = "pEC50"
meas_value = 5.02

[[record]]
molecule = "Cc1cc(O)c(=O)c(O)cc1C(=O)CC1CCCCC1 [Compound 173]"
parameter_measured = "pEC50"
meas_value = 5.17

[[record]]
molecule = "Cc1cc(O)c(=O)c(O)cc1-c1ccccc1 [Compound 113]"
parameter_measured = "pEC50"
meas_value = 5.38

[[record]]
molecule = "COC(=O)c1c(C)cc(O)c(=O)c(O)c1C(=O)OC [Compound 106]"
parameter_measured = "pEC50"
meas_value = 5.57


Proceeding to the next molecule to report its pEC50.
// pEC50 value for Cc1cc(O)c(=O)c(O)cc1-c1cccc(-c2ccccc2)c1 [Compound 231] : 5.00
